Field: CYP450 metabolic stability, Mouse, percent of remaining. Provide a value for each of the compounds that follow.
# protocol.summary: CYP450 metabolic stability, mouse liver microsomes
# Assay type: in vitro ADME
# measurement.parameters: 5 μM in liver microsomes, 1 h incubation

Asked: Please give measured CYP450 metabolic stability, Mouse, percent of remaining of the following entry: "CC1(C)COCN1C(=O)n1nnc2cc(C(N)=O)ccc21"
Given back: 87±9% of remaining

Asked: Please give measured CYP450 metabolic stability, Mouse, percent of remaining of the following entry: "CN(C(=O)n1cnc(-c2ccc[n+]([O-])c2)c1)C1CCCCC1"
Given back: 99±2% of remaining

Asked: Please give measured CYP450 metabolic stability, Mouse, percent of remaining of the following entry: "CC1(C)COCN1C(=O)n1nnc2ccccc21"
Given back: 5±0% of remaining

Asked: Please give measured CYP450 metabolic stability, Mouse, percent of remaining of the following entry: "CN(C(=O)n1cnc(-c2ccccc2)c1)C1CCN(Cc2ccccc2)CC1"
Given back: 62±0% of remaining

----------
Field: time of maximal inhibitory effect in the brain (t max). Provide a value for each of the compounds that follow.
# assay.system: UniProt:O08914
# Sequence (O08914 1-579): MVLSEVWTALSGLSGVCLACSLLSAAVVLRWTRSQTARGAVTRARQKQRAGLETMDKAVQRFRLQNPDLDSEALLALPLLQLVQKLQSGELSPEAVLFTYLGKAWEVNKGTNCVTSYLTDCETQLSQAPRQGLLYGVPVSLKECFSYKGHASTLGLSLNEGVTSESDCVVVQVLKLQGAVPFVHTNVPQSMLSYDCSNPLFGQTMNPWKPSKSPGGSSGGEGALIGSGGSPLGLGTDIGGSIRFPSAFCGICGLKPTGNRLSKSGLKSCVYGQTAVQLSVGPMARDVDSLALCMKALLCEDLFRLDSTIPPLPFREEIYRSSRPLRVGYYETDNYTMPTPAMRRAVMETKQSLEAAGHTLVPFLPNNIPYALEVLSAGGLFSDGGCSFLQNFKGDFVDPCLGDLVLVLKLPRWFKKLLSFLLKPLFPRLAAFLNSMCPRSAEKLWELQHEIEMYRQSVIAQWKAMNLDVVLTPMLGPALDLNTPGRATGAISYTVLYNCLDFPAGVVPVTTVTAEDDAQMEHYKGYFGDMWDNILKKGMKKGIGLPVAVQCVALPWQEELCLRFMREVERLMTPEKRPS
# protocol.summary: In vivo FAAH inhibition, brain, after oral administration to mice
# measurement.parameters: 0.1 mg kg^−1 p.o., mice, post-dose
Report as a plain number; the unit h is understood.

Asked: Please give measured time of maximal inhibitory effect in the brain (t max) of the following entry: "CN(C(=O)n1cnc(-c2ccc[n+]([O-])c2)c1)C1CCCCC1"
Given back: 8

Asked: Please give measured time of maximal inhibitory effect in the brain (t max) of the following entry: "CC1(C)COCN1C(=O)n1nnc2cc(C(N)=O)ccc21"
Given back: 1

Asked: Please give measured time of maximal inhibitory effect in the brain (t max) of the following entry: O=C(Nc1cccnc1)N1CCC(Cc2cccc(Oc3ccc(C(F)(F)F)cn3)c2)CC1 [Compound 3, PF3845, reference compound]
Given back: 8

Asked: Please give measured time of maximal inhibitory effect in the brain (t max) of the following entry: "CN(C(=O)n1cnc(-c2ccccc2)c1)C1CCN(Cc2ccccc2)CC1"
Given back: 8

----------
# assay.system: FAAH (Mus musculus, UniProt O08914)
# protocol.summary: In vivo FAAH inhibition, brain, after oral administration to mice
# measurement.parameters: 30 mg kg^−1 p.o. in mice, 1 h after administration; Table 2
Field: Brain FAAH activity, percent of control. Provide a value for each of the compounds that follow.

Asked: Please give measured Brain FAAH activity, percent of control of the following entry: "CN(Cc1ccccc1)C(=O)n1nnc2ccccc21"
Given back: 1±0% of control

Asked: Please give measured Brain FAAH activity, percent of control of the following entry: "O=C(NCc1ccccc1)n1nnc2ccccc21"
Given back: 87±7% of control

Asked: Please give measured Brain FAAH activity, percent of control of the following entry: "CC1(C)COCN1C(=O)n1nnc2ccccc21"
Given back: 0±0% of control

Asked: Please give measured Brain FAAH activity, percent of control of the following entry: "O=C(N1CCC(Cc2ccccc2)CC1)n1nnc2ccccc21"
Given back: 8±1% of control

Asked: Please give measured Brain FAAH activity, percent of control of the following entry: "Cl.O=C(N1CCN(Cc2ccccc2)CC1)n1nnc2ccccc21"
Given back: 20±5% of control

Asked: Please give measured Brain FAAH activity, percent of control of the following entry: "CN(C(=O)n1nnc2ccccc21)c1ccccc1"
Given back: 34±9% of control

Asked: Please give measured Brain FAAH activity, percent of control of the following entry: NC(=O)c1cccc(-c2cccc(OC(=O)NC3CCCCC3)c2)c1 [Compound 2, URB597, reference compound]
Given back: 9±2% of control

Asked: Please give measured Brain FAAH activity, percent of control of the following entry: O=C(Nc1cccnc1)N1CCC(Cc2cccc(Oc3ccc(C(F)(F)F)cn3)c2)CC1 [Compound 3, PF3845, reference compound]
Given back: 1±0% of control

Asked: Please give measured Brain FAAH activity, percent of control of the following entry: "O=C(N1CCN(c2ccccc2)CC1)n1nnc2ccccc21"
Given back: 88±7% of control

Asked: Please give measured Brain FAAH activity, percent of control of the following entry: "CN(C(=O)n1nnc2ccccc21)C1CCCCC1"
Given back: 0±0% of control

----------
# assay.system: FAAH (Mus musculus, UniProt O08914)
# protocol.summary: In vivo FAAH inhibition, brain, after oral administration to mice
# measurement.parameters: 0.1 mg kg^−1 p.o. in mice, 8 h after administration; Table 4
Field: Brain FAAH activity, percent of control. Provide a value for each of the compounds that follow.

Asked: Please give measured Brain FAAH activity, percent of control of the following entry: O=C(Nc1cccnc1)N1CCC(Cc2cccc(Oc3ccc(C(F)(F)F)cn3)c2)CC1 [Compound 3, PF3845, reference compound]
Given back: 5±1% of control

Asked: Please give measured Brain FAAH activity, percent of control of the following entry: CC1(C)COCN1C(=O)n1nnc2cccnc21 [Compound 11 e]
Given back: 12±4% of control

Asked: Please give measured Brain FAAH activity, percent of control of the following entry: CC1(C)COCN1C(=O)n1nnc2ccc(Br)cc21 [Compound 11 b]
Given back: 77±29% of control

Asked: Please give measured Brain FAAH activity, percent of control of the following entry: NC(=O)c1cccc(-c2cccc(OC(=O)NC3CCCCC3)c2)c1 [Compound 2, URB597, reference compound]
Given back: 91±7% of control
